# System: T1, LukD
# T1 chain: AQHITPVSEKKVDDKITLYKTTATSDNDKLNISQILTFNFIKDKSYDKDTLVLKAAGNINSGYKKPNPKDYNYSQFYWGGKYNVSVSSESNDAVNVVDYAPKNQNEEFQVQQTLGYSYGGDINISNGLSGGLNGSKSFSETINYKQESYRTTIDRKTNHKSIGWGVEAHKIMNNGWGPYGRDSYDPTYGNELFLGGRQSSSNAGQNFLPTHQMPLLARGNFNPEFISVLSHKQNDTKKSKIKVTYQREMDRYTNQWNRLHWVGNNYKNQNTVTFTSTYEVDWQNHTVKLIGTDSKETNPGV
# Experiment: MSD solution equilibrium; Fab
pKd: −log10 of the molar value.
Quantity measured: pKd

• AB-28-9 (antibody, V domains shown) VH: EVQLQESGPGLVRPSETLSLTCAVSGYSISSGMGWGWIRQPPGKGLEWIGSIDQRGSTYYNPSLKSRVTISVDTSKNQFSLKLSSVTAADTAVYYCARDAGHAVDMDVWGKGTTVTVSS VL: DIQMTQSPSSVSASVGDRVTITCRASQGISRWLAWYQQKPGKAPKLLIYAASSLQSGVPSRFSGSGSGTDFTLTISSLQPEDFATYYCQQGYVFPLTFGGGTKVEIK = 8.66
• AB-28-10 (antibody, V domains shown) VH: QVQLQESGPGLVKPSETLSLTCAVSGYSISSGMGWGWIRQPPGKGLEWIGSIDQRGSTYYNPSLKSRVTISVDTSKNQFSLKLSSVTAADTAVYYCARDAGHAVDMDVWGKGTTVTVSS VL: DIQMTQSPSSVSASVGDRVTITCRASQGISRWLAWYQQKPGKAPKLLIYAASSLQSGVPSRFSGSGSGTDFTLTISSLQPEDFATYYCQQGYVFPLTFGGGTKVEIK = 9.35
• AB-28 (antibody, V domains shown) VH: QVQLQESGPGLVKPSETLSLTCAVSGYSISSGMGWGWIRQPPGKGLEWIGSIDQRGSTYYNPSLKSRVTISVDTSKNQFSLKLSSVTAADTAVYYCARDAGHGVDMDVWGKGTTVTVSS VL: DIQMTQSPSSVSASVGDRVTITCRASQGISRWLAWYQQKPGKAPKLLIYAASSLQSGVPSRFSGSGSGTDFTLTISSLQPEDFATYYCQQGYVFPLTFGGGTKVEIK = 8.66
• AB-28-7 (antibody, V domains shown) VH: QVQLQESGPGLVKPSETLSLTCAVSGYSISSGMGWDWIRQPPGKGREWIGSIDQRGSTYYNPSLEGRATISVDTSKNQFSLKLSSVTAADTAVYYCARDAGHGVDMDVWGKGTTVTVSS VL: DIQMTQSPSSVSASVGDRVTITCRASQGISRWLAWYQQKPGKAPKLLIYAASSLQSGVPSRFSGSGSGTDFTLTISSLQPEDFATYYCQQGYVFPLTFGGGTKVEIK = 9.54
